IC50 reference
- measurement-target: c-Kit (Homo sapiens, UniProt P10721)
- Sequence (P10721 26-976): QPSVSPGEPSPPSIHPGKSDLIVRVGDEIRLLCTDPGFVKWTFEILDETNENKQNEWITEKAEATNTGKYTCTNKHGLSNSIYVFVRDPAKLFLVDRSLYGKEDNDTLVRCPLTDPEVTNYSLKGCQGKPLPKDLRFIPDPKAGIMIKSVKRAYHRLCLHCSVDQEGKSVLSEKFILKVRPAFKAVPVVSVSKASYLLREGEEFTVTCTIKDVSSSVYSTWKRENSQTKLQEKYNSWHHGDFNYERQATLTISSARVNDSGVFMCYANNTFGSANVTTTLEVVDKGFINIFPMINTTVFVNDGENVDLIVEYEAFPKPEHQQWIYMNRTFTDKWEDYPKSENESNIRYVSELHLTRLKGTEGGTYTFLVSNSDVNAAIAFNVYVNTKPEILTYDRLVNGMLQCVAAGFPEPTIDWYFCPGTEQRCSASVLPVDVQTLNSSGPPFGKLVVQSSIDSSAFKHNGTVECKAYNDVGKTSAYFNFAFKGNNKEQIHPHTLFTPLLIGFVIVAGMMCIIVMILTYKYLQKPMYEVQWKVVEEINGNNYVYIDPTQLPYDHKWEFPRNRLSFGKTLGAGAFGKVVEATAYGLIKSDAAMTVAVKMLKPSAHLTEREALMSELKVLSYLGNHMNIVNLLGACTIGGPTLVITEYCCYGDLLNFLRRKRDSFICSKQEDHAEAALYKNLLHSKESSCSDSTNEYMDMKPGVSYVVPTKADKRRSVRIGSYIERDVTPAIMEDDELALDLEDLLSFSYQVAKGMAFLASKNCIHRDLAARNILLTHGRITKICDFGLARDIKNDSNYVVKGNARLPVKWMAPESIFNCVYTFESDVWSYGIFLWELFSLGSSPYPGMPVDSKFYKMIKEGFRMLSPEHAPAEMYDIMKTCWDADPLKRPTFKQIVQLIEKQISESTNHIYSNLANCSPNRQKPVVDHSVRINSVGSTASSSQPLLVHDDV
- experiment: c-Kit biochemical assay (per US 2007/0032519)

Example entries begin here.
Incoming: Entry COc1cnc2[nH]cc(-c3cnc4[nH]cnc4c3)c2c1 [P-052] , system c-Kit (Homo sapiens, UniProt P10721): what IC50 was measured?
Outgoing: 1 to 10 µM

Incoming: # query: IC50 | item c1nc2cc(-c3c[nH]c4ncc(-c5cnc(C6CC6)nc5)cc34)ccc2[nH]1 [P-027] | system: c-Kit (Homo sapiens, UniProt P10721)
Outgoing: 0.0001 to 1 µM

Incoming: Look up IC50 with c-Kit (Homo sapiens, UniProt P10721) for this compound: COc1cc(-c2cnc3[nH]cc(-c4ccc5ncn(C)c5c4)c3c2)cc(OC)n1 [P-123]
Outgoing: 10 to 200 µM

Switching to the query record.
Incoming: What reported IC50 corresponds to CC(C)(C)n1cnc2ccc(-c3c[nH]c4ncc(-c5ccnc(F)c5)nc34)cc21 [P-384] on c-Kit (Homo sapiens, UniProt P10721)?
Outgoing: 0.0001 to 1 µM

----------
- measurement-target: c-Kit (Homo sapiens, UniProt P10721)
- experiment: c-Kit biochemical assay (per US 2007/0032519)
reported-endpoint: IC50

Recorded results for 5 compounds are shown here.
Incoming: Query for c-Kit (Homo sapiens, UniProt P10721): what IC50 does the record show for COc1ncc(-c2cnc3[nH]cc(-c4ccc5ncn(C(C)(C)C)c5c4)c3n2)cc1F ?
Outgoing: 0.0001 to 1 µM

Incoming: # query: IC50 | item COc1cnc2[nH]cc(-c3ccc4ncn(C5CCNC5)c4c3)c2c1 (stereo not drawn) | system: c-Kit (Homo sapiens, UniProt P10721)
Outgoing: 10 to 200 µM

Incoming: Param readout= IC50; system= c-Kit (Homo sapiens, UniProt P10721); entry= COc1cc(-c2cnc3[nH]cc(-c4ccc5ncn(CC(F)(F)F)c5c4)c3n2)ccn1 ; returns value.
Outgoing: 10 to 200 µM

Incoming: API: value(readout= IC50, system= c-Kit (Homo sapiens, UniProt P10721), query= Nc1nc2cc(-c3c[nH]c4ncccc34)ccc2[nH]1 )
Outgoing: 10 to 200 µM

Incoming: Lab note: need IC50 with c-Kit (Homo sapiens, UniProt P10721) for entry COC(=O)c1cc(-c2cnc3[nH]cc(-c4ccc5ncn(C)c5c4)c3c2)ccc1C , please look it up.
Outgoing: 10 to 200 µM

Next:
Incoming: # returns recorded IC50 (system: c-Kit (Homo sapiens, UniProt P10721)) for CS(=O)(=O)Nc1cccc(-c2cnc3[nH]cc(-c4ccc5[nH]cnc5c4)c3c2)c1
Outgoing: 1 to 10 µM

Incoming: Param readout= IC50; system= c-Kit (Homo sapiens, UniProt P10721); entry= COc1cnc2[nH]cc(-c3ccc4occc4c3)c2c1 ; returns value.
Outgoing: 10 to 200 µM

Incoming: Lab note: need IC50 with c-Kit (Homo sapiens, UniProt P10721) for entry COc1cnc2[nH]cc(-c3cc4nc[nH]c4cc3C)c2c1 , please look it up.
Outgoing: 10 to 200 µM

Incoming: Give c-Kit (Homo sapiens, UniProt P10721) IC50 for COc1ncc(-c2cnc3[nH]cc(-c4ccc5ncn(C(C)(C)C)c5c4)c3n2)cc1C#N
Outgoing: 10 to 200 µM

Incoming: So what IC50 did CS(=O)(=O)Nc1cccc(-c2cnc3[nH]cc(-c4ccc5c(c4)NCCO5)c3n2)c1 get with c-Kit (Homo sapiens, UniProt P10721)?
Outgoing: 1 to 10 µM

Incoming: Entry Cc1nn(C)cc1-c1cnc2[nH]cc(-c3ccc4ncn(C(C)(C)C)c4c3)c2n1 , system c-Kit (Homo sapiens, UniProt P10721): what IC50 was measured?
Outgoing: 0.0001 to 1 µM

Incoming: Return IC50 measured with c-Kit (Homo sapiens, UniProt P10721) given this compound: O=C(C1CC1)N1CC=C(c2cnc3[nH]cc(-c4ccc5[nH]cnc5c4)c3c2)CC1
Outgoing: 1 to 10 µM
